- study system: UniProtKB P11511
- Sequence (P11511 whole entry): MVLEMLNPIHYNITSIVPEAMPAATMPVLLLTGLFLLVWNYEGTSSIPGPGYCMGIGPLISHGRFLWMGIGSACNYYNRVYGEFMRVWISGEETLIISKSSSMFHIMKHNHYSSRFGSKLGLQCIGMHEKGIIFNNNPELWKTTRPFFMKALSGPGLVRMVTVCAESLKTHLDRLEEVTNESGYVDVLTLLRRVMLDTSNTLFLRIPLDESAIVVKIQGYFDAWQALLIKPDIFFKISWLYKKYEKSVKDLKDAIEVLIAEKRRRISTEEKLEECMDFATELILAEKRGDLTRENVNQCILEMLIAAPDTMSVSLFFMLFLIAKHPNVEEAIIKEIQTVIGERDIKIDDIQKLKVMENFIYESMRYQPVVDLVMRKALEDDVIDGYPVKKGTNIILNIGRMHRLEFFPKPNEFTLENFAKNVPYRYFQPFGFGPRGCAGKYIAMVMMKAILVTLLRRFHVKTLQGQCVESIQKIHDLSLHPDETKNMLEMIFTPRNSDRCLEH
- test details: Assay for inhibition of aromatase activity (fluorescence, dibenzylfluorescein)
reported endpoint: IC50 (µM)
Supply the numeric figure in µM, leaving out any unit text.

# compound, observed value
records = [
    ("COc1ccc2c(c1)OC(c1ccc(OC)c(CC=C(C)C)c1)CC2=O (racemic)", 3.67),
    ("COc1ccc(C2CC(=O)c3ccccc3O2)cc1CC=C(C)C (racemic)", 12.1),
    ("COc1ccc2c(c1)OC(c1cccc(CC=C(C)C)c1)CC2=O (racemic)", 4.67),
    ("COc1ccc(C2CC(=O)c3ccc(O)cc3O2)cc1CC=C(C)C (racemic)", 4.08),
]

q: // returns reported IC50 for input COCOc1ccc2c(c1)OC(c1ccc(OC)c(CC=C(C)C)c1)CC2=O (racemic)
a: 7.67

q: So what's the measured IC50 for this one? COc1ccc2c(c1)OC(c1ccc(O)c(CC=C(C)C)c1)CC2=O (racemic)
a: 4.75

q: Find the recorded IC50 belonging to COCOc1ccc2c(c1)OC(c1ccc(OCOC)c(CC=C(C)C)c1)CC2=O (racemic) and report it.
a: 13.9

q: Param item = COc1ccc(C2CC(=O)c3ccc(OC)cc3O2)cc1 (racemic) ; retrieve measured IC50.
a: 1.86

q: Which IC50 value belongs to COCOc1ccc(C2CC(=O)c3ccc(OC)cc3O2)cc1CC=C(C)C (racemic) ?
a: 25.1

Recorded values, source patent US8946287B2.
